biological target: Retinaldehyde dehydrogenase 3 (Homo sapiens) (UniProt P47895); experiment: qHTS for Inhibitors of the Aldehyde Dehydrogenase Family (ALDH1A3) Primary screen (AID 2061315); settings: ALDH inhibition qHTS; series mostly up to 56 µM
Inconclusive results are not listed. Calls of active or inactive are those of the source. The call rests on the fitted dose curve; in most records, active means well fitted inhibition curve with a large enough effect; inconclusive means small, poorly fitted or top-dose-only effect; inactive means no such curve, though single readings can be large or run the other way.
OBSERVED_PROPERTY: activity change, negative = inhibition

Answered examples (5):
Cc1cc(N[S+](=O)([O-])c2cc3c(cc2Cl)NC(=O)CO3)ccc1Br
inactive
COc1cc(O)c(C(CC(=O)N2CCCC(C)C2)c2ccc(OC)c(OC)c2)c(OC)c1 (stereo unspecified)
inactive
O=C(Nc1ccc(F)nc1)Nc1nnc(-c2ccncc2)s1
inactive
CN1CCN(c2cccc(Nc3nn4c(=O)c5ccccc5nc4s3)c2)CC1
inactive
O=C1CCCC2=C1C(c1cnccc1C(F)(F)F)N=C(Nc1nc3ccccc3o1)N2 (stereo unspecified)
inactive

Query string: Look at this compound and give its reported activity change, negative = inhibition. CN1CCCC1CCNc1ncnc2ccc(-c3ccc4c(c3)OCO4)cc12 (stereo unspecified)
Result string: inactive

Query string: Record: `O=C(COC(=O)CNC(=O)C1CCCCC1)Nc1ccccc1Cl`
Result string: inactive

Query string: Record: `CCn1cnc2c(Nc3ccc(CCC(=O)N=C(N)N)cc3)nc(C#N)nc21`
Result string: inactive

Cited source for all entries: PubChem BioAssay (NCATS)
